Experiment: Selectivity index, ratio of IC50 for rat L6 cells to IC50 for promastigote form of Leishmania donovani strain MHOM/SD/00/1S-2D
Type: toxicity, cell-based
Details: read-out: Ratio IC50
Hi there, I'd appreciate the recorded selectivity ratio for every entry that follows.
Give bare numbers.

For orientation, consider the following solved cases.
Query block: Could you please provide reported selectivity ratio for `NCCCNCCCCNCCCNCc1ccc(OC2=CC(=O)c3cc4ccccc4cc3C2=O)cc1` ? Thanks!
Result block: 0.45

Query block: Please list selectivity ratio recorded for the compound `O=C1C=C(Oc2ccccc2)C(=O)c2cc3ccccc3cc21`
Result block: 0.35

Respectfully, I request selectivity ratio for each entry included below.
1. NCCCCNCc1ccc(OC2=CC(=O)c3ccccc3C2=O)cc1
2. NCCCNCCCCNCc1ccc(OC2=CC(=O)c3cc4ccccc4cc3C2=O)cc1
3. NCCCCCNCc1ccc(OC2=CC(=O)c3cc4ccccc4cc3C2=O)cc1
4. NCCCCCNCc1ccc(OC2=CC(=O)c3ccccc3C2=O)cc1
5. O=C1C=C(Oc2ccccc2)C(=O)c2ccccc21
6. NCCCCNCc1ccc(OC2=CC(=O)c3cc4ccccc4cc3C2=O)cc1

Result block:
1: 1.27; 2: 0.41; 3: 1.39; 4: 1.18; 5: 8; 6: 1.56

Query block: Answer with the recorded selectivity ratio of `NCCCNCCCNCCCNCc1ccc(OC2=CC(=O)c3cc4ccccc4cc3C2=O)cc1` only.
Result block: 0.53
